assay-method-text: S16 Schwann cell viability assay (CellTiter-Glo assay) (AID 624031);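 note: native untransfected S16 rat Schwann cells; cellular ATP luminescence as a viability measure; plate controls were DMSO-treated cells for no effect and cell-free wells for full effect; nearly all actives have a fitted effect of over 70% in size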
measurement-conditions: S16 rat Schwann cells viability, 24 h; series mostly up to 25.7 µM
Results filed as inconclusive are left out. The source made the active and inactive calls. Calls come from the whole dose curve; as a rule, active = well fitted cell-killing curve with a large enough effect; inconclusive = small, poorly fitted or top-dose-only effect, or effect the other way; inactive = flat fitted curve, though single readings scatter.
measure-name: outcome

Previously resolved entries follow.
Cc1ncc([N+](=O)[O-])n1C[C@H](O)CCl
inactive
Cc1ccc(S(=O)(=O)NC(=O)NN2C[C@H]3CCC[C@@H]3C2)cc1
inactive
CCC1OC(=O)C(C)[C@@H](O[C@H]2C[C@@](C)(OC)C(O)C(C)O2)C(C)[C@@H](O[C@@H]2OC(C)CC(N(C)C)C2O)[C@@](C)(O)CC(C)C(=O)[C@@H](C)C(O)[C@]1(C)O (stereo partly specified)
inactive
CC=C(/C(=C/C)c1ccc(O)cc1)c1ccc(O)cc1
inactive
CCc1c(C)[nH]c2c1C(=O)[C@H](CN1CCOCC1)CC2
inactive

Hey, can you go through the list below and give me outcome for every item?
1. O=C1OC(CO)C(O)C(O)C1O (stereo unspecified)
2. CC[C@H](Cc1c(I)cc(I)c(N)c1I)C(=O)O
3. CN(C)CCc1c[nH]c2ccc(CC3COC(=O)N3)cc12 (stereo unspecified)
4. O=C(O)[C@@H]1CCCN1
5. CC(=O)[C@@H]1CC[C@@H]2[C@@H]3C[C@H](C)C4=CC(=O)CC[C@@]4(C)[C@H]3[C@H](O)C[C@]21C
6. O=C(Nc1ccccc1)OC[C@H](CN1CCCCC1)OC(=O)Nc1ccccc1

Data returned:
["inactive", "inactive", "inactive", "inactive", "inactive", "inactive"]

---

test-system: Rap guanine nucleotide exchange factor 4 (Homo sapiens) (UniProt Q8WZA2)
Sequence (Q8WZA2 whole entry, looked up): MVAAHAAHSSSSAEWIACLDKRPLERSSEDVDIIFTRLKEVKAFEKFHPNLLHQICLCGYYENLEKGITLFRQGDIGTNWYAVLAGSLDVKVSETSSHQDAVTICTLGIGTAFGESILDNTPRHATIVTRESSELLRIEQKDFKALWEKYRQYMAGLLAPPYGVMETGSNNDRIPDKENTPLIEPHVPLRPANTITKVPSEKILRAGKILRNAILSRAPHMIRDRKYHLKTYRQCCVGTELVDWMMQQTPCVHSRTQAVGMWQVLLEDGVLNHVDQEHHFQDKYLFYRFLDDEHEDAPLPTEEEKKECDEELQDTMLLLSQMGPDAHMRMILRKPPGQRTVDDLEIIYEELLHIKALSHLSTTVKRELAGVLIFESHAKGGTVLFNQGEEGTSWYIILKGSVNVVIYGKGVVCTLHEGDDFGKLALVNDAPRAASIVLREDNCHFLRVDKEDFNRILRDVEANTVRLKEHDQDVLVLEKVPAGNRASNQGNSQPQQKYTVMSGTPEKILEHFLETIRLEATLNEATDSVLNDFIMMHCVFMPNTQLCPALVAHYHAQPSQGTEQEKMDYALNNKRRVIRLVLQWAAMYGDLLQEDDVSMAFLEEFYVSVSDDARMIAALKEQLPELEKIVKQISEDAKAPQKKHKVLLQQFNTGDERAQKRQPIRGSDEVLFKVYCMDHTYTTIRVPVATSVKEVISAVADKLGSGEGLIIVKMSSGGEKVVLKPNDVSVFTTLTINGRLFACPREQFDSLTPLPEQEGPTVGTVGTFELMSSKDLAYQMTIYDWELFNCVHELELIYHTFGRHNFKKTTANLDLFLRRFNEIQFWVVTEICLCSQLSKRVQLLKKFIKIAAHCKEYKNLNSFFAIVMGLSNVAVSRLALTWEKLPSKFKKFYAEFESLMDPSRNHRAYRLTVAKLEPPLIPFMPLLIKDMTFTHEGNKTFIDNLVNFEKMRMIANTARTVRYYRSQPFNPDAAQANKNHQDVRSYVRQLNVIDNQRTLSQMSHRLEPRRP
assay-method-text: Confirmatory qHTS for antagonist of cAMP-regulated guanine nucleotide exchange factor 4 (EPAC2) (AID 1645885); note: nearly all actives have a fitted effect of over 25% in size
measurement-conditions: EPAC2 Rap1B-BODIPY-GDP exchange fluorescence, biochemical; series mostly up to 12.7 µM
Results filed as inconclusive are left out. The source made the active and inactive calls. Calls follow the shape of the dose curve; as a rule, active = well fitted inhibition curve with a large enough effect; inconclusive = small, poorly fitted or top-dose-only effect; inactive = no such curve, though single readings can be large or run the other way.
Mark one answer only. Choices: active, inactive

// below: answered compounds
O=C(Nc1cccc(Cl)c1)c1c(NC(=O)C(F)(F)F)sc2c1CCCC2
inactive
COC(=O)C1(Cc2ccccc2)NC(c2ccc(F)cc2)C2C(=O)N(C)C(=O)C21 (stereo unspecified)
inactive

Data request: // param item: `COc1ccccc1-n1c(-c2ccccc2)c[n+]2c1CCc1ccccc1-2` ; yields the recorded call
Data returned: inactive

Data request: // param item: CCCCCCOC(=O)C(C#N)c1nc2ccccc2nc1N1CCOCC1 (stereo unspecified) ; yields the recorded call
Data returned: active

Data request: // param item: Cc1ccc(S(=O)(=O)NCCC(=O)N2CC(C)OC(C)C2)cc1 (stereo unspecified) ; yields the recorded call
Data returned: inactive

Data request: // param item: `N#Cc1c(-c2ccccc2)nc(SCc2ccc(Cl)cc2)[nH]c1=O` ; yields the recorded call
Data returned: active

---

assay-method-text: qHTS Assay for Lipid Storage Modulators (AID 1519)
measurement-conditions: Drosophila S3 cells, BODIPY lipid droplet/cell ratio, laser cytometry; measured here: cell count channel max response; cells loaded with oleic acid
Records with an inconclusive call do not appear. Peptide text beside a SMILES is read from it.
measure-name: max response (%)
Numbers only, in %.

Previously resolved entries follow.
CC(=O)/C(=C\c1ccccc1)CC(=O)O
12.7
OCC1OC(n2cnc3c(=S)nc[nH]c32)C(O)C1O (stereo not drawn)
-3.48

Now consider a different compound.
Data request: Request the reported max response associated with CC(C)CC(NC(=O)CN)C(=O)NC(Cc1ccccc1)C(=O)O (stereo not drawn) (H-Gly-Leu-Phe-OH; configuration not given here)
Data returned: 3.97

---

Exercise: for every item that follows, state its recorded max response.
assay-method-text: qHTS Assay for Lipid Storage Modulators (AID 1519)
measurement-conditions: Drosophila S3 cells, BODIPY lipid droplet/cell ratio, laser cytometry; measured here: lipid channel max response; cells loaded with oleic acid
Protocol: NIH Molecular Libraries Probe Production Centers Network [MLPCN] NIH Chemical Genomics Center [NCGC] Assay Submitter (PI): Beller, Mathias; Max-Planck-Institut fur Biophysikalische Chemie […] We dispensed 4 uL of cells at 1.25 x 10^6 cells/mL into LoBase Aurora COC 1,536-well plates (black walled, clear bottom) with a bottle-valve solenoid-based dispenser (Aurora) to obtain 5,000 cells/well. […] The ratio of the total intensity in PMT channel 1 over total intensity of channel 3 was also calculated. […]
Inconclusive results are not listed.
Answers are plain numbers, in %.

CC(C1OC(C)(C)C(O)C1O)C1CC[C@@]2(C)C3=CCC4C(C)(C)C(=O)CC[C@]4(C)C3CC[C@@]12C (stereo not given in full)
3.6
C[C@@H](C(=O)O)c1ccc(N2Cc3ccccc3C2=O)cc1
-10.4

Hey, can you go through the list below and give me max response for every item?
1. C[C@]12CCC(=O)C=C1CCC1C2C(O)C[C@]2(C)C1CC[C@]2(O)C(=O)CO (stereo not given in full)
2. CCOC(=O)C(Cc1ccc(O)cc1)NC(C)=O (stereo not given)
3. COc1cccc(-c2nc(NCCc3c[nH]c4ccc(OC)cc34)c3ccccc3n2)c1
4. CC(=O)N(C[C@@H](O)CO)c1c(I)c(C(=O)NC[C@@H](O)CO)c(I)c(C(=O)NC[C@@H](O)CO)c1I
5. NC(Cc1c[nH]c2ccccc12)C(=O)NCC(=O)O (stereo not given)

Data returned:
[21.1, 13.9, -5.2, -19.4, -10.5]

Hey, can you go through the list below and give me max response for every item?
1. COC(=O)CC1C(C)(C)C2(O)OC34CC2C(=O)[C@@]1(C)C3CC[C@]1(C)C4=CC(=O)OC1c1ccoc1 (stereo not given in full)
2. C[C@H](CCC(=O)O)[C@H]1CC[C@H]2[C@H]3C(C[C@H](O)[C@]12C)[C@@]1(C)CC[C@@H](O)C[C@H]1C[C@H]3O (stereo not given in full)
3. CC(=O)OCC(=O)[C@@]1(O)CCC2C3CCC4=CC(=O)CC[C@@]4(C)[C@]3(F)C(O)C[C@]21C (stereo not given in full)
4. CCOC(=O)CCC(=O)O[C@H]1C(O[C@@H]2C(C)[C@H](O[C@H]3C[C@@](C)(OC)C(O)C(C)O3)C(C)C(=O)OC(CC)[C@@](C)(O)C(O)[C@H](C)C(=O)C(C)C[C@]2(C)O)OC(C)CC1N(C)C (stereo not given in full)
5. C[C@@H]1CCC2[C@](C)(CO)C(O)CC[C@@]2(C)[C@@]12CC[C@](CO)(CCO)O2 (stereo not given in full)
6. CC[C@@H]1OC(=O)[C@H](C)[C@H](O[C@@H]2C[C@](C)(OC)[C@H](O)[C@H](C)O2)[C@H](C)[C@H](O[C@@H]2O[C@@H](C)C[C@@H](N(C)C)[C@@H]2O)[C@](C)(O)C[C@H](C)C(=O)[C@H](C)[C@H](O)[C@]1(C)O
7. Cc1cc(O)c(C=O)c2c1C(=O)Oc1c(COC(=O)/C=C/C(=O)O)c(O)c(C(=O)O)c(C)c1O2
8. COC(=O)[C@@H]1[C@@H]2C[C@H]3c4[nH]c5cc(OC)ccc5c4CCN3C[C@@H]2C[C@H](OC(=O)c2cc(OC)c(OC)c(OC)c2)[C@H]1OC

Data returned:
1: 8.19; 2: 25.2; 3: 29.1; 4: 3.45; 5: 17.7; 6: 8.95; 7: 3.61; 8: -12.8

---

Exercise: for every item that follows, state its recorded activity change, negative = inhibition.
assay-method-text: qHTS Assay for Lipid Storage Modulators (AID 1519); for activity change, negative = inhibition: % is set by controls: 0 for no effect and ±100 for the full control effect
measurement-conditions: Drosophila S3 cells, BODIPY lipid droplet/cell ratio, laser cytometry; at 25.7 µM (top of the series); cells loaded with oleic acid
Records with an inconclusive call do not appear. The source made the active and inactive calls. Calls follow the shape of the full dose curve.

Previously resolved entries follow.
CO[C@H]1[C@H](O[C@H]2O[C@@H](C)[C@@H](O[C@@H]3C[C@](C)(O)[C@H](O)[C@H](C)O3)[C@@H](N(C)C)[C@@H]2O)[C@@H](CC=O)C[C@@H](C)[C@@H](O[C@H]2CC[C@H](N(C)C)[C@H](C)O2)/C=C\C=C/C[C@@H](C)OC(=O)C[C@H]1O
-1.68% (inactive)
CC(C)(C)NC[C@H](O)COc1cccc2c1CCC(=O)N2
-0.554% (inactive)
CCO[C@H]1O[C@@H]([C@H](COCc2ccccc2)OCc2ccccc2)[C@@H](OCc2ccccc2)[C@H]1O
-6.14% (inactive)
CC[N+]1(C)[C@@H]2CC[C@H]1CC(OC(=O)[C@H]1CC[C@@](C(=O)OC3C[C@H]4CC[C@@H](C3)[N+]4(C)CC)(c3ccccc3)c3ccccc31)C2 (some centres not stated)
-4.59% (inactive)
CNC[C@H](O)[C@H](O)[C@H](O)[C@H](O)CO
-1.7% (inactive)
N[C@H](Cc1cc(I)c(Oc2cc(I)c(O)c(I)c2)c(I)c1)C(=O)O
1.16% (inactive)

Hey, can you go through the list below and give me activity change, negative = inhibition for every item?
1. C[C@@H]1O[C@H](O[C@@H]2\C=C/C=C\C=C/C=C\C[C@H](C)OC(=O)/C=C\[C@H]3O[C@@H]3C[C@H](O)C[C@]3(O)C[C@@H](O)[C@@H](C(=O)O)[C@H](C2)O3)[C@@H](O)[C@H](N)[C@@H]1O (stereo in doubt)
2. CN1CCO[C@H](c2ccccc2)c2ccccc2C1
3. CC(C)(CO)[C@H](O)C(=O)NCCC(=O)O
4. CC#C[C@@]1(O)CC[C@H]2[C@@H]3CCC4=CC(=O)CCC4=C3[C@H](c3ccc(N(C)C)cc3)C[C@]21C
5. CCCCC[C@H](O)/C=C\[C@H]1[C@H](C/C=C\CCCC(=O)O)[C@@H](O)C[C@H]1O (tested in a mixture with another compound)

Data returned:
1: 2.21% (inactive); 2: -1.73% (inactive); 3: -0.81% (inactive); 4: 0.174% (inactive); 5: -0.941% (inactive)

Hey, can you go through the list below and give me activity change, negative = inhibition for every item?
1. CO[C@@H]1C[C@H](O[C@H]2[C@@H](C)[C@H](O[C@@H]3O[C@@H](C)C[C@@H](N(C)C)[C@@H]3OC(C)=O)[C@H](C)C[C@]3(CO3)C(=O)[C@H](C)[C@H](OC(C)=O)[C@H](C)[C@H](C)OC(=O)[C@@H]2C)O[C@H](C)[C@@H]1OC(C)=O
2. NC[C@@H]1O[C@H](O[C@@H]2[C@H](O[C@@H]3O[C@H](CO)[C@@H](COC[C@H]4O[C@@H](CN)[C@@H](O)[C@@H](O)[C@@H]4N)[C@@H]3O)[C@@H](O)[C@@H](N)C[C@H]2N)[C@@H](N)[C@H](O)[C@@H]1O

Data returned:
-1.3% (inactive)
-1.17% (inactive)

Hey, can you go through the list below and give me activity change, negative = inhibition for every item?
1. CC(C)(CS)C(=O)N1CCC[C@H]1C(=O)O
2. C[C@@]12CC[C@@H]3c4ccc(O)cc4CC[C@H]3[C@H]1C[C@@H](O)[C@H]2O
3. CO[C@]1(NC(=O)C2SC(=C(C(N)=O)C(=O)O)S2)C(=O)N2C(C(=O)O)=C(CSc3nnnn3C)CS[C@H]21 (some centres not stated)
4. COC(=O)Nc1nc2ccc(SC(C)C)cc2[nH]1

Data returned:
1. 1% (inactive)
2. -1.89% (inactive)
3. 0.935% (inactive)
4. -1.67% (inactive)

Hey, can you go through the list below and give me activity change, negative = inhibition for every item?
1. Clc1ccc([C@H](Cn2ccnc2)OCc2csc3c(Cl)cccc23)c(Cl)c1
2. CN(C)CCOC(=O)[C@@H](c1ccccc1)C1(O)CCCC1
3. C[C@@H](CN1c2ccccc2Sc2ccccc21)N(C)C
4. Cc1onc(-c2c(F)cccc2Cl)c1C(=O)N[C@H]1C(=O)N2[C@H]1SC(C)(C)[C@H]2C(=O)O

Data returned:
["0.1% (inactive)", "-1.19% (inactive)", "-3.2% (inactive)", "-2.99% (inactive)"]

Hey, can you go through the list below and give me activity change, negative = inhibition for every item?
1. C[C@]1(OC(=O)/C=C\c2ccccc2)C[C@@H](O)[C@@]2(O)C=CO[C@@H](O[C@H]3O[C@@H](CO)[C@@H](O)[C@@H](O)[C@@H]3O)[C@H]21
2. OC[C@@H](O)CN1CCN(c2ccccc2)CC1
3. c1ccc2c(c1)CCC[C@@H]2C1=NCCN1
4. COc1cc2c(cc1OC)-c1cc3ccc(OC)c(OC)c3c[n+]1CC2
5. C#C[C@]1(O)CC[C@@H]2[C@H]3CCC4=CCCC[C@@H]4[C@@H]3CC[C@@]21C

Data returned:
1: -2.22% (inactive); 2: 0.251% (inactive); 3: 1.29% (inactive); 4: 1.8% (inactive); 5: -4.16% (inactive)

Hey, can you go through the list below and give me activity change, negative = inhibition for every item?
1. CC(=O)[C@H]1CC[C@@H]2[C@H]3CC=C4C[C@@H](O)CC[C@]4(C)[C@H]3CC[C@]12C
2. O=C1CN(/N=C\c2ccc([N+](=O)[O-])o2)C(=O)N1
3. NS(=O)(=O)c1cc2c(cc1Cl)N[C@@H](CC1CCCC1)NS2(=O)=O
4. CCOC(=O)O[C@]1(C(=O)COC(=O)CC)CC[C@@H]2[C@@H]3CCC4=CC(=O)C=C[C@@]4(C)[C@H]3[C@H](O)C[C@]21C
5. C=CCSC[C@@H]1Nc2cc(Cl)c(S(N)(=O)=O)cc2S(=O)(=O)N1

Data returned:
["-2.95% (inactive)", "1.21% (inactive)", "-0.977% (inactive)", "-3.74% (inactive)", "-0.966% (inactive)"]

Data request: Request the reported activity change, negative = inhibition associated with `CN1CCC[C@@H](CC2c3ccccc3Sc3ccccc32)C1`
Data returned: -5.3% (inactive)

Data provenance is PubChem BioAssay (NCATS).
